Hello, the source for this data is a melting point compilation (Tetko et al.; mined from patent text by program, amines drawn as free bases though some values may be those of a salt), in case you need it.

recorded-metric: melting point

For orientation, consider the following solved cases.
Nc1ncnc2c1c(-c1ccccc1)cn2-c1cccc(O)c1 | 227 to 228 °C
COc1cc(C=CC2=NN=C(C)Cc3cc(OC)c(OC)cc32)ccc1O | 192 to 193 °C
COc1ccc(-c2c(N[C@H](C)c3ccccc3)c(=O)c2=O)cc1 | 159 to 160 °C
COc1ccc(F)c(OC)c1-c1ccc(C[C@H](NC(=O)c2c(Cl)cccc2Cl)C(=O)O)cc1 | 228 to 229 °C

Prompt: Given the entry CCCCCCCc1ccc(-c2ccc(C(=O)O)cc2)cc1 , report its measured melting point.
Completion: 163 °C

Prompt: Given the entry N#Cc1c(N2CCCN(c3ccc(F)c(F)c3)CC2)cc[nH]c1=S , report its measured melting point.
Completion: 250 to 251 °C

Prompt: Given the entry CC(C)(N)c1ccc(-c2nc(Nc3ccc(CCN4CCOCC4)cc3)ncc2Cl)cc1 , report its measured melting point.
Completion: 166 to 173 °C

Prompt: Given the entry NC(=O)N1Cc2c(-c3ccc(F)cc3)ncn2-c2ccccc21 , report its measured melting point.
Completion: 222 to 223 °C

Prompt: Given the entry Cc1ccc2c(c1)C1(COc3cc4c(cc31)OCO4)C(=O)N2Cc1ccc(C(F)(F)F)o1 (centres undefined) , report its measured melting point.
Completion: 96 to 98 °C

====

recorded-metric: melting point

For orientation, consider the following solved cases.
OC[C@@H](O)c1ccccc1Cl | 39 °C
Nc1ncnc2c1c(-c1cccc(O)c1)nn2Cc1oc2ccccc2c(=O)c1-c1cccc(F)c1 | 280 to 283 °C
O=C(O)CCN1Cn2cc(C(=O)O)cc2-c2ccccc21 | 234 to 236 °C

Prompt: Given the entry CCN(COC)c1cc(-c2ccnc(Nc3cccc(Cl)c3)n2)ccn1 , report its measured melting point.
Completion: 114 to 115 °C

Prompt: Given the entry COc1ccc2c(c1)CCC(=O)C2CC(=O)c1ccccc1 (stereo not drawn) , report its measured melting point.
Completion: 55 to 59 °C

Prompt: Given the entry O=C(O)CCc1cccc2ccccc12 , report its measured melting point.
Completion: 151 to 153 °C

Prompt: Given the entry CC(=O)N1CCc2c(c(=O)c3cccnc3n2-c2ccccc2)C1 , report its measured melting point.
Completion: 210 to 212 °C

Prompt: Given the entry CCOC(=O)c1c[nH]c2nc(N3CCC(N)C3)c(F)cc2c1=O (stereo not drawn) , report its measured melting point.
Completion: 139 to 141 °C

====

Catalogue of melting point readings, one per entry.

For orientation, consider the following solved cases.
CN(CC(=O)O)C[C@@H]1CC(c2ccc(-c3ccc(N4C[C@H](Cn5ccnn5)OC4=O)cc3F)cn2)=NO1 | 212 to 218 °C
CC(C)(C)c1ccc(CCNc2ncnc3ccncc23)cc1 | 157 to 158 °C
COc1ccc2c(c1)c(CCO)c(C)n2-c1ccnc2cc(Cl)ccc12 | 143 to 145 °C
NC(=O)c1ccc(N2CCN(CCC3CCc4ccccc43)CC2)cc1 (stereo not given) | 204 to 205 °C
CC(C)(Oc1ccc(OCCCCc2cc(-c3ccc(C(F)(F)F)cc3)no2)cc1)C(=O)O | 103 to 104 °C
CCCCSc1ccc(C(=O)O)nc1 | 100 to 102 °C

Prompt: Given the entry O=C(Nc1ccc(Cl)cc1)NS(=O)(=O)c1ccc2c(c1)CCO2 , report its measured melting point.
Completion: 190 to 194 °C

Prompt: Given the entry Cn1c2cc(Cl)ccc2c2c(=O)[nH]c(-c3ccccc3)nc21 , report its measured melting point.
Completion: > 300 °C

Prompt: Given the entry Cc1c(C(=O)Nc2ccc(N3CCC(N4CCOCC4)CC3)c(C#N)c2)cnn1-c1ccc(F)c(F)c1 , report its measured melting point.
Completion: 243 °C

Prompt: Given the entry CC(C)(C)N1C(=O)c2cnc(-c3ccccc3)nc2N(C(=O)CCl)c2ccccc21 , report its measured melting point.
Completion: 176 to 177 °C
